assay.protocol: Oral bioavailability in rat at 2 mg/kg
Assay type: ADME, organism-based
test.parameters: in vivo
// NO strictly below 50% in bioavailability; YES otherwise

smi | answer.label
N[C@@H](CC(=O)N1CCn2c(nnc2C(F)F)C1)Cc1cc(F)c(F)cc1F | NO

-- ask Is reported bioavailability greater than or equal to 50% here: "N[C@@H](CC(=O)N1CCn2c(nnc2C(F)(F)F)C1)Cc1cc(F)c(Cl)cc1F"
-- reply YES

-- ask Is reported bioavailability greater than or equal to 50% here: "N[C@@H](CC(=O)N1CCn2c(nnc2C(F)(F)F)C1)Cc1cc(F)c(F)cc1F"
-- reply YES

-- ask Is reported bioavailability greater than or equal to 50% here: "N[C@@H](CC(=O)N1CCn2c(nnc2C(F)(F)F)C1)Cc1cc(F)c(F)cc1Cl"
-- reply NO

-- ask Is reported bioavailability greater than or equal to 50% here: "N[C@@H](CC(=O)N1CCn2c(nnc2C(F)(F)F)C1)Cc1ccc(Cl)cc1Cl"
-- reply NO

---

assay.protocol: Clearance in rat at 1 mg/kg, iv or 2 mg/kg, po
Format: ADME, organism-based
test.parameters: in vivo
// F strictly below 70 mL/min/kg in clearance; T otherwise

Please review the entries below; each comes with its answer.
molecule | answer.label
N[C@@H](CC(=O)N1CCn2c(nnc2C(F)(F)F)C1)Cc1cc(F)c(F)cc1Cl | T
N[C@@H](CC(=O)N1CCn2c(nnc2C(F)(F)F)C1)Cc1cc(F)c(F)cc1F [SITAGLIPTIN] | F
N[C@@H](CC(=O)N1CCn2c(nnc2C(F)F)C1)Cc1cc(F)c(F)cc1F | F
N[C@@H](CC(=O)N1CCn2c(nnc2C(F)(F)F)C1)Cc1ccc(Cl)cc1Cl | T
N[C@@H](CC(=O)N1CCn2c(nnc2C(F)(F)F)C1)Cc1cc(Cl)ccc1F | T

// switching to the query molecule
-- ask Is reported clearance greater than or equal to 70 mL/min/kg here: "N[C@@H](CC(=O)N1CCn2c(nnc2C(F)(F)F)C1)Cc1cc(F)c(Cl)cc1F"
-- reply F

---

assay.protocol: Oral bioavailability in rat at 2 mg/kg
Format: ADME, organism-based
test.parameters: in vivo
recorded.metric: bioavailability

Example compounds with recorded bioavailability:
smi | recorded.metric | experimental.value
N[C@@H](CC(=O)N1CCn2c(nnc2C(F)(F)F)C1)Cc1cc(Cl)ccc1F | bioavailability | 43%
CCc1nnc2n1CCN(C(=O)C[C@H](N)Cc1cc(F)c(F)cc1F)C2 | bioavailability | 2%

Shift focus to the following entry.
Quick note, bioavailability for "N[C@@H](CC(=O)N1CCn2c(nnc2C2CC2)C1)Cc1cc(F)c(F)cc1F" landed at 3%

---

assay.protocol: Half life in rat at 1 mg/kg, iv or 2 mg/kg, po
Type: ADME, organism-based
test.parameters: in vivo
# half-life listing for each entry below
# output: bare number, implied unit h

smi | half-life (h)
N[C@@H](CC(=O)N1CCn2c(nnc2C(F)(F)F)C1)Cc1cc(F)c(Cl)cc1F | 2.1
N[C@@H](CC(=O)N1CCn2c(nnc2C(F)(F)F)C1)Cc1ccc(Cl)cc1Cl | 2.6
N[C@@H](CC(=O)N1CCn2c(nnc2C(F)F)C1)Cc1cc(F)c(F)cc1F | 1.3
N[C@@H](CC(=O)N1CCn2c(nnc2C(F)(F)F)C1)Cc1cc(Cl)ccc1F | 1.7

Quick note, half-life for "N[C@@H](CC(=O)N1CCn2c(nnc2C2CC2)C1)Cc1cc(F)c(F)cc1F" landed at 1.8

Quick note, half-life for "N[C@@H](CC(=O)N1CCn2c(nnc2C(F)(F)F)C1)Cc1cc(F)c(F)cc1Cl" landed at 1.7

---

# IC50 listing for each entry below
experimental.system: Dipeptidyl peptidase 8 (Homo sapiens)
Sequence (Q6V1X1 whole entry): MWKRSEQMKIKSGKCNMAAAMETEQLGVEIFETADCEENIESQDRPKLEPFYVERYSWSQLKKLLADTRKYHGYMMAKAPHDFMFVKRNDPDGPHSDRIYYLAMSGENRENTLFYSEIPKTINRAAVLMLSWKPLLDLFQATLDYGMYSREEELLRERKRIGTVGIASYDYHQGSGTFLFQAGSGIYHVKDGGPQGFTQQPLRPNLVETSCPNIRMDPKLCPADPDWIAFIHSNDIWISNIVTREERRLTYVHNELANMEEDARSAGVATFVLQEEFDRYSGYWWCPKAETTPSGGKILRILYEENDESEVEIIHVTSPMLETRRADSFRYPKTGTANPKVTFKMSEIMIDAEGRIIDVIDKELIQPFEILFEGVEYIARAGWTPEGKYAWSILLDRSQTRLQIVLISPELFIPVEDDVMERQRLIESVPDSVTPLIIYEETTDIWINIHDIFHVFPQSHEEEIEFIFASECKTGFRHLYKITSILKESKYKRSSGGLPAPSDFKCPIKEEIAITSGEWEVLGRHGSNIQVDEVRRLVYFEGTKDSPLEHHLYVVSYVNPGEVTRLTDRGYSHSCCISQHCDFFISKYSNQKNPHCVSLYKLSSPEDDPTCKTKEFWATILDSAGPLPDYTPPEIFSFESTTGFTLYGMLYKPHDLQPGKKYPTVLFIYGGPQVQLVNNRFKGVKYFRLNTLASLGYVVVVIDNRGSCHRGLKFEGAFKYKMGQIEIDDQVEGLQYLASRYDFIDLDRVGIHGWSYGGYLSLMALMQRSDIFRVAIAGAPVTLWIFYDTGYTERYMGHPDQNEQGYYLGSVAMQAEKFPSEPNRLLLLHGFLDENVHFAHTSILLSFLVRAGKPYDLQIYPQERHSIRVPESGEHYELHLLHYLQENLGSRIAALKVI

Example compounds with recorded IC50:
smi | IC50
N[C@@H](CC(=O)N1CCn2c(nnc2C(F)(F)F)C1)Cc1cccc(C(F)(F)F)c1 | > 100 µM
N[C@@H](CC(=O)N1CCn2c(nnc2C(F)(F)F)C1)Cc1cccc(F)c1 | > 100 µM
N[C@@H](CC(=O)N1CCn2c(nnc2C(F)(F)F)C1)Cc1cc(F)c(F)cc1Cl | > 100 µM
CCOC(=O)c1nnc2n1CCN(C(=O)C[C@H](N)Cc1cc(F)c(F)cc1F)C2 | 22 µM

Quick note, IC50 for "N[C@@H](CC(=O)N1CCn2c(nnc2C(F)(F)F)C1)Cc1cc(F)cc(F)c1F" landed at > 100 µM

Quick note, IC50 for "N[C@@H](CC(=O)N1CCn2c(nnc2C(F)(F)F)C1)Cc1ccccc1C(F)(F)F" landed at > 100 µM

---

experimental.system: Dipeptidyl peptidase 9 (Homo sapiens, UniProt Q86TI2)
Sequence (Q86TI2 whole entry): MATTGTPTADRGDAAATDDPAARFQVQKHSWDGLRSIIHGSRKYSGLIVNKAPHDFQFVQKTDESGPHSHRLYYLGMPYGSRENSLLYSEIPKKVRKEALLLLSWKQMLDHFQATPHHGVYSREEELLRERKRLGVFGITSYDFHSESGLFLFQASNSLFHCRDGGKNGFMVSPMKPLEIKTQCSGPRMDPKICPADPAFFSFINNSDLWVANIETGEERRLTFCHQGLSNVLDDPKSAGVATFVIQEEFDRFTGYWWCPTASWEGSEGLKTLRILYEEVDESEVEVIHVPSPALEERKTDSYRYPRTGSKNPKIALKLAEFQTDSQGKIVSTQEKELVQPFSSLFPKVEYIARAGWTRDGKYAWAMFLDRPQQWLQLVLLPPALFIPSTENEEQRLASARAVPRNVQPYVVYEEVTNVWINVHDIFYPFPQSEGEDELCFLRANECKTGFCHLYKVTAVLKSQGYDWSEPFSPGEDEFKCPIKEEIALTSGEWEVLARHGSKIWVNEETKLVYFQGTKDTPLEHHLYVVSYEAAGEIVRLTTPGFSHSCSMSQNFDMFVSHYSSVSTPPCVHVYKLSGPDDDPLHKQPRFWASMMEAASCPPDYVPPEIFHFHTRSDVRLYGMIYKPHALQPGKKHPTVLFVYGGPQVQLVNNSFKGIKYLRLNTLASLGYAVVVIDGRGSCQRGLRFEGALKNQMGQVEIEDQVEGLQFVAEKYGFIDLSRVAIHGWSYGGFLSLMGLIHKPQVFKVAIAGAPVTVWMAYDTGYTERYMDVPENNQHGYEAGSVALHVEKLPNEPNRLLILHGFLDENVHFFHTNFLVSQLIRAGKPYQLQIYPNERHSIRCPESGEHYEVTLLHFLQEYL
# IC50 listing for each entry below

Example compounds with recorded IC50:
smi | experimental.system | IC50
N[C@@H](CC(=O)N1CCn2c(nnc2C(F)(F)F)C1)Cc1c(F)c(F)c(F)c(F)c1F | Dipeptidyl peptidase 9 (Homo sapiens, UniProt Q86TI2) | > 100 µM
N[C@@H](CC(=O)N1CCn2c(nnc2C2CC2)C1)Cc1cc(F)c(F)cc1F | Dipeptidyl peptidase 9 (Homo sapiens, UniProt Q86TI2) | > 100 µM
CCOC(=O)c1nnc2n1CCN(C(=O)C[C@H](N)Cc1cc(F)ccc1F)C2 | Dipeptidyl peptidase 9 (Homo sapiens, UniProt Q86TI2) | 78 µM
N[C@@H](CC(=O)N1CCn2c(nnc2C(F)(F)F)C1)Cc1ccccc1F | Dipeptidyl peptidase 9 (Homo sapiens, UniProt Q86TI2) | > 100 µM

Shift focus to the following entry.
Quick note, IC50 for "N[C@@H](CC(=O)N1CCn2c(nnc2C(F)(F)F)C1)Cc1cccc(Cl)c1" landed at > 100 µM
